Reported IC50 values for a set of compounds
# Tested on: full-length human CSNK1A1 (Homo sapiens, UniProt P48729)
# Construct: N-terminal Glutathion-S-Transferase (GST) and full-length human CSNK1A1; purchased Life Technologies PV4174; host or cells: baculovirus infected insect cells
# Sequence (P48729 whole entry): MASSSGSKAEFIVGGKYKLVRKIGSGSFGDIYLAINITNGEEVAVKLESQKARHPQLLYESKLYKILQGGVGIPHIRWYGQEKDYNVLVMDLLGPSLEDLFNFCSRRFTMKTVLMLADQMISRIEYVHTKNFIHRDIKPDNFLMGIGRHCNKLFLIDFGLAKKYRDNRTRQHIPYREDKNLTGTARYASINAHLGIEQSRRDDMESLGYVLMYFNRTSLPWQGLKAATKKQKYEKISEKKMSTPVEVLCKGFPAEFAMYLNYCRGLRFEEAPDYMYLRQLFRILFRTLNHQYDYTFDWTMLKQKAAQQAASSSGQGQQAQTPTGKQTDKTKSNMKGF
# Assay text: CSNK1A1 High ATP Assay (ADP-Glo, 1 mM ATP);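 further: 30 min kinase reaction at 22 °C with 100 µM peptide substrate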
# Format: biochemical
# Stated conditions: Table 3, read-out: CSNK1A1 high ATP assay IC50 [mol/l] (median)
# Experimental: CSNK1A1-inhibitory activity of compounds of the present invention in presence of 1 mM adenosine-tri-phosphate (ATP) was quantified employing the CSNK1A1-high-ATP-assay as described in the following paragraphs. In essence, the enzyme activity is measured by quantification of the adenosine-di-phosphate (ADP), which is generated as a co-product of the enzyme reaction, via the “ADP-Glo™ Kinase Assay” kit from the company Promega. […]
Write the number in µM without appending the unit.

The cases that follow already have their IC50 on record.
Compound | Tested on | Value reported
Cc1ccc2[nH]c(-c3ccnc(NC(=O)C(CC(F)F)c4ccc(F)cc4)c3)c(-c3ccccn3)c2n1 (racemic) [Example 4] | full-length human CSNK1A1 (Homo sapiens, UniProt P48729) | 0.158
O=C(Nc1cc(-c2[nH]c3cccnc3c2-c2ccccc2)ccn1)C(CC(F)F)c1ccc(F)cc1 (racemic) [Example 22] | full-length human CSNK1A1 (Homo sapiens, UniProt P48729) | 0.0904

Per the record, COc1ncnc2c(-c3ccccn3)c(-c3ccnc(NC(=O)C(CC(F)F)c4ccc(F)cc4)c3)[nH]c12 (stereo not drawn) has IC50 of 0.157

Data origin, for the record: patent US12692261B2
